Quick list: EC50 (read off the curve) per entry.
Target: T1, human CD73 expressed on the cell surface (human, UniProt P21589 27-549)
T1 construct: whole, on cells; also called surface CD73
T1 sequence (looked up): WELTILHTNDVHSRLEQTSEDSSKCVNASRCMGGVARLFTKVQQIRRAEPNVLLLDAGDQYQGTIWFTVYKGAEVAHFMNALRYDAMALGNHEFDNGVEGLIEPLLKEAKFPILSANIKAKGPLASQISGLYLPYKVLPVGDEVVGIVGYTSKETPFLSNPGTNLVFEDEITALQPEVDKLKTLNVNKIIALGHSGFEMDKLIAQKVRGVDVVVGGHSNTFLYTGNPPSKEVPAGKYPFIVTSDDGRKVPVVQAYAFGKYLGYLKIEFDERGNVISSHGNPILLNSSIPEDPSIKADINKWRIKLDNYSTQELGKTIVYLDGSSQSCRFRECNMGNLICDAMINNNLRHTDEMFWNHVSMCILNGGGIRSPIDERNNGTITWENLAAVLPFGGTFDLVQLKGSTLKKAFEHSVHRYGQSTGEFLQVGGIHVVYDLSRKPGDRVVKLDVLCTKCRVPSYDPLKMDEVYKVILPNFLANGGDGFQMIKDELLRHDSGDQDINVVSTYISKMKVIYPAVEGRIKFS
Assay: flow cytometry, biotinylated antibody on CD8+ T cells in human whole blood, streptavidin-APC detection

Illustrative cases are given below, each with its answer.
// EC50 (read off the curve) lookup, binder = 377.B (antibody, IgG4, V domains shown, IgG4 S228P/L235E format (.B construct); Biotinylated in the whole blood assay) VH: EVQLLESGGGLVQPGGSLRLSCAASGFTFKSYAMSWVRQAPGKGLEWVSAISGSGSYTYYADSVKGRFTISRDNSKNTLYLQMNSLRAEDTAVYYCARGGLYGSGSYLSDFDLWGRGTLVTVSS VL: EIVLTQSPATLSVSPGERATLSCRASQSVGSNLAWYQQKPGQAPRLLIYGASTRATGIPARFSGSGSGTEFTLTISSLQSEDFAVYYCQQHNAFPYTFGGGTKVEIK , result: ~5 ng/mL

// EC50 (read off the curve) lookup, binder = 356.B (antibody, human IgG4 S228P, kappa, V domains shown, IgG4 S228P/L235E format; Heavy chain entry ends in X, wherein X is K or absent; Biotinylated in the whole blood assay) VH: QVQLQESGPGLVKPSETLSLTCTVSGGSIEGRYWSWIRQPPGKGLEWIGYIYGSGSTKYNPSLKSRVTISVDTSKNQFSLKLSSVTAADTAVYYCARESQESPYNNWFDPWGQGTLVTVSS VL: DIQMTQSPSSVSASVGDRVTITCRASQGISSWLAWYQQKPGKAPKLLIYAASSLQSGVPSRFSGSGSGTDFTLTISSLQPEDFATYYCQQGNSFPRTFGGGTKVEIKR , result: ~5 ng/mL

// EC50 (read off the curve) lookup, binder = 379.B (antibody, human IgG4 S228P, kappa, V domains shown, IgG4 S228P/L235E format; Heavy chain entry ends in X, wherein X is K or absent; Biotinylated in the whole blood assay) VH: EVQLLESGGGLVQPGGSLRLSCAASGFTFSRYAMSWVRQAPGKGLEWVSSISGTGGSTYYADSVKGRFTISRDNSKNTLYLQMNSLRAEDTAVYYCARGGLYGSGSYLSDFDLWGRGTLVTVSS VL: EIVLTQSPATLSVSPGERATLSCRASQSVGSNLAWYQQKPGQAPRLLIYGASTRATGIPARFSGSGSGTEFTLTISSLQSEDFAVYYCQQHNAFPYTFGGGTKVEIKR , result: ~6 ng/mL

// EC50 (read off the curve) lookup, binder = 358.B (antibody, human IgG4 S228P, kappa, V domains shown, IgG4 S228P/L235E format; Heavy chain entry ends in X, wherein X is K or absent; Biotinylated in the whole blood assay) VH: QVQLQESGPGLVKPSETLSLTCTVSGGSISGRYWSWIRQPPGKGLEWIGYIYGTGSTNYNPSLKSRVTISVDTSKNQFSLKLSSVTAADTAVYYCARESQESPYNNWFDPWGQGTLVTVSS VL: DIQMTQSPSSVSASVGDRVTITCRASQGISSWLAWYQQKPGKAPKLLIYAASSLQSGVPSRFSGSGSGTDFTLTISSLQPEDFATYYCQQGNSFPRTFGGGTKVEIKR , result: ~4 ng/mL

Continue with the next binder.
// EC50 (read off the curve) lookup, binder = 374.B (antibody, human IgG4 S228P, kappa, V domains shown, IgG4 S228P/L235E format; Heavy chain entry ends in X, wherein X is K or absent; Biotinylated in the whole blood assay) VH: EVQLLESGGGLVQPGGSLRLSCAASGFTFSYNAMSWVRQAPGKGLEWVSSISGTGGSTYYADSVKGRFTISRDNSKNTLYLQMNSLRAEDTAVYYCARGGLYGSGSYLSDFDLWGRGTLVTVSS VL: EIVLTQSPATLSVSPGERATLSCRASQSVGSNLAWYQQKPGQAPRLLIYGASTRATGIPARFSGSGSGTEFTLTISSLQSEDFAVYYCQQHNAFPYTFGGGTKVEIKR , result: ~6 ng/mL
